The compounds listed here are annotated with their pKap.
- procedure details: Apparent pKa by direct titration with NaOH
- Type: physicochemical
- test context: aqueous solution, concentration above the minimum aggregation concentration; pH at semi-equivalence point
# output: bare number, no unit

Answered cases to consult:
CCCCCCCCCCCC(=O)NC(CCCNC(=N)N)C(=O)NCCCCCCCCCNC(=O)C(CCCNC(=N)N)NC(=O)CCCCCCCCCCC (stereo not shown)	9.4
CCCCCCCCCCCC(=O)NC(CCCNC(=N)N)C(=O)NCCCNC(=O)C(CCCNC(=N)N)NC(=O)CCCCCCCCCCC (stereo not shown)	11.4
CCCCCCCCCCCC(=O)NC(CCCNC(=N)N)C(=O)NCCCCCCNC(=O)C(CCCNC(=N)N)NC(=O)CCCCCCCCCCC (stereo not shown)	10.5

Kindly consider the entry below.
Reported pKap ( CCCCCCCCCCCC(=O)NC(CCCNC(=N)N)C(=O)NCC(O)CNC(=O)C(CCCNC(=N)N)NC(=O)CCCCCCCCCCC (stereo not shown) ) = 10.9
